# SYSTEM NAME: ENaC (Mus musculus, UniProt Q61180+Q9WU38+Q9WU39)
# Construct: Mouse kidney M-1 cells were cultivated in DMEM containing 5% FCS and 5 μM dexamethasone; endogenous in cells
# Sequence (Q61180 1-699): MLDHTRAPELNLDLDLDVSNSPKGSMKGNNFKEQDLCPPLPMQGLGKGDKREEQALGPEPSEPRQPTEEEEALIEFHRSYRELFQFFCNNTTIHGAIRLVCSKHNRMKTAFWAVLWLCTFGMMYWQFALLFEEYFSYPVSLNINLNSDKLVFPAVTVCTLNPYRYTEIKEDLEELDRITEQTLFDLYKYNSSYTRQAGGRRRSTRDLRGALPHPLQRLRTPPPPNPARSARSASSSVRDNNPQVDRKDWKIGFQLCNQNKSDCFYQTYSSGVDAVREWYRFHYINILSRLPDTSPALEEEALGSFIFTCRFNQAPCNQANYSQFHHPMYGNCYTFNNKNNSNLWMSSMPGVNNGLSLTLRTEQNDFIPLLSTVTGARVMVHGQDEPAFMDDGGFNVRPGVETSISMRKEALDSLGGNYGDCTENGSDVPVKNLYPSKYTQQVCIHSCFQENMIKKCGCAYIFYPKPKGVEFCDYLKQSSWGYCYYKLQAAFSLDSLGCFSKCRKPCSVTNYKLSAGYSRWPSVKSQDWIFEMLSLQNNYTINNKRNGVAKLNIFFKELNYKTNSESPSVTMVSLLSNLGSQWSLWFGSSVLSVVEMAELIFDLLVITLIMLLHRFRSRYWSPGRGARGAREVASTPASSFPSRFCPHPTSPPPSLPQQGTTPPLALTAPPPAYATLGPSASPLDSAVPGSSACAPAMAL
# Sequence (Q9WU38 1-638): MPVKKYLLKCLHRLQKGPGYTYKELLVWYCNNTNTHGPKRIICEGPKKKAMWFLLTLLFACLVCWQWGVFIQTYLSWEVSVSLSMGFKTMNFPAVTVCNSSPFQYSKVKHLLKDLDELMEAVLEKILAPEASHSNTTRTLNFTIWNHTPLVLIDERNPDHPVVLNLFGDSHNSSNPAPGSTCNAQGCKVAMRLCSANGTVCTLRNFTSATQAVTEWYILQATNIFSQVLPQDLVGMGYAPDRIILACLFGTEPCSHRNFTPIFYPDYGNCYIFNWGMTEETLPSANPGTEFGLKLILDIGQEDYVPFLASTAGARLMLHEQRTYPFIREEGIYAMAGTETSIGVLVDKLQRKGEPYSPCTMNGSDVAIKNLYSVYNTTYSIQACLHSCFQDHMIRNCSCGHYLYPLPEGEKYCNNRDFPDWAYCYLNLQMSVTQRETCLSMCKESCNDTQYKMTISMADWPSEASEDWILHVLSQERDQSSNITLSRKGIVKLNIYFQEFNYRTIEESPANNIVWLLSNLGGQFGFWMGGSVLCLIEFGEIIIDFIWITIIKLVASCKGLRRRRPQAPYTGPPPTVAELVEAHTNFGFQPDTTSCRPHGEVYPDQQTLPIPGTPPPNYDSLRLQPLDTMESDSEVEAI
# Sequence (Q9WU39 1-655): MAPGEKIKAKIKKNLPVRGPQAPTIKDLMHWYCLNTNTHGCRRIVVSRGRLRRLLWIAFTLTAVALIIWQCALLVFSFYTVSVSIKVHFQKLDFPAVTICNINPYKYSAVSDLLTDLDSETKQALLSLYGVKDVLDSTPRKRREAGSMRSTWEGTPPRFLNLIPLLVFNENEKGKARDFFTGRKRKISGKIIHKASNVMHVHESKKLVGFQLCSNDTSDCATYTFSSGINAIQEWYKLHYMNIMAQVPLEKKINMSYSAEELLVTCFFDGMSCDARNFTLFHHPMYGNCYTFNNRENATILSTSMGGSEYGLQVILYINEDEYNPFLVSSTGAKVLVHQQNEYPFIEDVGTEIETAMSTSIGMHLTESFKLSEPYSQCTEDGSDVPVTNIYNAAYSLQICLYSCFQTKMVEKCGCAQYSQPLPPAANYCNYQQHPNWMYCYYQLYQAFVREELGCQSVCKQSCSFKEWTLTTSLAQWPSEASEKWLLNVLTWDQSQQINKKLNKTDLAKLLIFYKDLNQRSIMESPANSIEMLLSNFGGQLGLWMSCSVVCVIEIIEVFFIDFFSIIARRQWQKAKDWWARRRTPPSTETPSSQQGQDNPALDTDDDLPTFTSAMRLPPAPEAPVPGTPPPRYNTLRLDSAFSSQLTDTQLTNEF
# TEST: Ussing chamber: short circuit current (I_sc) in mouse kidney M-1 cells, amiloride-sensitive
# CONDITION: compound applied to apical solution, 37° C.
pIC50: −log10 of the molar value.
# if value of pIC50 reaches 7, tag Fulfilled; if it stays below, tag Not fulfilled

NC(=NC(=O)c1nc(Cl)c(N)nc1N)N[C@@H]1C[N+]2(CC(=O)Nc3ccccc3)CCC1CC2    Fulfilled

# bool: pIC50 of CC(C)=CC[N+]12CCC(CC1)[C@H](N/C(N)=N/C(=O)c1nc(Cl)c(N)nc1N)C2 >= 7
Not fulfilled

# bool: pIC50 of NC(=NC(=O)c1nc(Cl)c(N)nc1N)N[C@@H]1C[N+]2(CC(=O)N3CCN(c4ncccn4)CC3)CCC1CC2 >= 7
Fulfilled
